Test system: Plasmodium berghei
method.notes: Screen against P. berghei liver stage (PbLuc), transformed with Luciferase, at 2uM
Format: functional, HepG2
test.conditions: tested at 2 uM
Screen size: about 68,000 compounds; about 2,700 (4%) showed an effect of 50% or more. Shown is part of a subset that was picked to be rich in strong results.
Some molecules, each annotated with its measured INHIBITION.
measure.name: INHIBITION (%)

molecule=CCO[C@@H]1CC[C@H]2[C@H]1OCCN2C(=O)CC1=CCCCC1 test_result=-32.82
molecule="OC1(CN2CCOC(Cn3cccn3)C2)CCCCC1 (stereo unspecified)" test_result=-1.88
molecule=COc1ccsc1C(=O)NC1CCN(c2cccc(F)c2)CC1 test_result=-11.07
molecule="CCC(O)CNc1ccc(-c2nc(CC(C)C)no2)cn1 (stereo unspecified)" test_result=69.71
molecule="CC(C)(C(=O)N1CCCC(OCc2cccnc2)C1)n1cccc1 (stereo unspecified)" test_result=27.81
molecule="CCC1(C)Cc2ccccc2-c2nc(NCCCO)nc(O)c21 (stereo unspecified)" test_result=44.7
